Sourced from PubChem BioAssay

Target: Pro-neuregulin-1, membrane-bound isoform (Homo sapiens) (UniProt Q02297)
Sequence (Q02297 whole entry, looked up, canonical isoform): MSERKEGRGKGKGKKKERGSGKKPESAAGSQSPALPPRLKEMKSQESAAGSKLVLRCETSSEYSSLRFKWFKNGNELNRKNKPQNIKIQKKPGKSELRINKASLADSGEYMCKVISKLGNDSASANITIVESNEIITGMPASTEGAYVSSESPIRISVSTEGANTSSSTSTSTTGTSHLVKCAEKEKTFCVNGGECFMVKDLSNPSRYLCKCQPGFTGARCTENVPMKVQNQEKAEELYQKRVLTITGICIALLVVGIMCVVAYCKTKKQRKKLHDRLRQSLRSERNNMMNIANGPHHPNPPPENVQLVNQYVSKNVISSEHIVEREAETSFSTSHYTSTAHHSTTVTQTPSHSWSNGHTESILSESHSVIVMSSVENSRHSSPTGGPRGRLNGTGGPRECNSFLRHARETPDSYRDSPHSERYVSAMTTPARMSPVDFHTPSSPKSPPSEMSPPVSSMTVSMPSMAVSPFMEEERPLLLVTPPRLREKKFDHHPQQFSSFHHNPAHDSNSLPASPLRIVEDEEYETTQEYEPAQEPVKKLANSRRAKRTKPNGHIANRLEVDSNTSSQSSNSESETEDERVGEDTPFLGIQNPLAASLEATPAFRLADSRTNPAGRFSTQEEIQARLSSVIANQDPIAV
Experiment: NRG1 binders on small-molecule microarrays, primary screen, psychiatric disease protein project, biochemical, small-molecule microarray, fluorescence 635/667 (AID 1075);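 also: score combines 667 nm spot fluorescence with signal to noise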
Conditions: NRG1 binding, 635 nm fluorescence, higher = more signal
As shown below, each of these compounds has a reported composite z-score value.
Lab note: record the figure alone, no unit after it.

compound	composite z-score
O=C(O)[C@H]1C[C@H]2C(=O)NCC(=O)N2[C@H]1c1ccc(O)cc1	-0.235
[N-]=[N+]=NCc1ccccc1C[C@@]1(C(=O)N2CCOCC2)N=C(c2ccc(OCCCO)cc2)O[C@@H]1c1ccccc1CN=[N+]=[N-]	1.91
C[N+](C)(C)CCCCCCNC(=O)[C@H]1C[C@H]2C(=O)N3CCC[C@H]3C(=O)N2[C@H]1c1ccc(O)cc1	1.96
Cc1ccc(S[C@]2(C(=O)O)CC(=O)N(C3Cc4ccccc4C3)[C@@H]2c2ccc(CO)cc2I)cc1	0.899
O=C1O[C@@H](c2ccccc2)[C@@H](c2ccccc2)N2[C@@H](c3ccc(O)cc3)[C@]3(C(=O)Nc4ccc(C#CC5(O)CCCCCC5)cc43)[C@@H](C(=O)N3CCCCCCC3)[C@H]12	2.49
COc1ccc(C#Cc2ccc3c(c2)[C@]2(C(=O)N3)[C@H](C(=O)NC[C@H](O)c3ccccc3)[C@H]3C(=O)O[C@H](c4ccccc4)[C@H](c4ccccc4)N3[C@@H]2c2ccccc2OCCO)cc1	1.56
CC=CC(O)C1C=CC2C(=O)N(c3ccccc3)C(=O)C2N1Nc1ccc(C(C)C)cc1 (stereo not given)	1.52
C=CC[C@@]1(C(=O)N2CCOCC2)N=C(c2ccc(OCCCO)cc2)O[C@@H]1c1ccccc1N=[N+]=[N-]	1.44
COCCOC(=O)N1C(=O)[C@@]2(c3cc(C#CCCO)ccc31)[C@H](C(=O)NC[C@H](O)c1ccccc1)[C@H]1C(=O)O[C@H](c3ccccc3)[C@H](c3ccccc3)N1[C@@H]2c1ccc(O)cc1	1.48
CCN(CC)c1ccc(N2CC=CC34O[C@@H]5C=CCCOC(=O)C5[C@H]3C(=O)N(CCCCCO)[C@@H]4C2=O)cc1 (stereo not given in full)	1.78

### Prompt I'd like to know its composite z-score. The compound in question is CC(C)NC(=O)[C@@H]1c2ccccc2C(=O)N(Cc2ccccc2Cl)[C@H]1c1ccc(CO)cc1
### Response 1.49

### Prompt Then COc1ccc(C(=O)Nc2cccc(CN3C(=O)[C@]4(O[C@H](CC(=O)N5CCC[C@H]5CO)[C@@H]([Si](C)(C)c5ccc(OC)cc5)[C@@H]4C)c4ccccc43)c2)cc1 ?
### Response 0.847

### Prompt Also check COC(=O)[C@@]1(Cc2ccc(OC)cc2)[C@H]2c3cc(C(=O)N4CCCC4)n(CCc4c[nH]c5cc(F)ccc45)c3C[C@H]2CN1C(=O)c1ccccc1
### Response 2.12

### Prompt Quick one: CC(C)CNC(=O)[C@@]1(c2ccc([N+](=O)[O-])cc2)CC(=O)N(CC23CC4CC(CC(C4)C2)C3)[C@@H]1c1ccc(CO)cc1
### Response 0.65

### Prompt Next: CCOC(=O)C[C@H]1[C@H](OC(=O)c2ccccc2-c2ccccc2)[C@@H](NC(=O)Cc2ccc(OC)cc2)c2cc(OCCCO)ccc2N1C(=O)c1ccccc1
### Response -0.299
